biological target: rSERT (Rattus norvegicus)
quantity: Ki (nM)
Your answer is read as nM, so omit the unit and give the number.

Prompt: Record lookup: for rSERT (Rattus norvegicus), what Ki belongs to CN(CCCN1c2ccccc2CCc2ccccc21)CC(=O)c1ccc(Cl)cc1 [compound 5, lofepramine, reference compound] ?
Completion: 1120

----------
target: rSERT (Rattus norvegicus, UniProt P31652); construct: expressed in transfected cells; host or cells: T-REx-SERT cells (T-REx 293 based, tetracycline-inducible), gift of C.G. Tate; assay: Radioligand binding assay (RBA), competition with [3H]-citalopram, membranes of T-REx-SERT cells; conditions: 0.5 nM [3H]-citalopram, 34°C, 60 min
Sequence (P31652 whole entry): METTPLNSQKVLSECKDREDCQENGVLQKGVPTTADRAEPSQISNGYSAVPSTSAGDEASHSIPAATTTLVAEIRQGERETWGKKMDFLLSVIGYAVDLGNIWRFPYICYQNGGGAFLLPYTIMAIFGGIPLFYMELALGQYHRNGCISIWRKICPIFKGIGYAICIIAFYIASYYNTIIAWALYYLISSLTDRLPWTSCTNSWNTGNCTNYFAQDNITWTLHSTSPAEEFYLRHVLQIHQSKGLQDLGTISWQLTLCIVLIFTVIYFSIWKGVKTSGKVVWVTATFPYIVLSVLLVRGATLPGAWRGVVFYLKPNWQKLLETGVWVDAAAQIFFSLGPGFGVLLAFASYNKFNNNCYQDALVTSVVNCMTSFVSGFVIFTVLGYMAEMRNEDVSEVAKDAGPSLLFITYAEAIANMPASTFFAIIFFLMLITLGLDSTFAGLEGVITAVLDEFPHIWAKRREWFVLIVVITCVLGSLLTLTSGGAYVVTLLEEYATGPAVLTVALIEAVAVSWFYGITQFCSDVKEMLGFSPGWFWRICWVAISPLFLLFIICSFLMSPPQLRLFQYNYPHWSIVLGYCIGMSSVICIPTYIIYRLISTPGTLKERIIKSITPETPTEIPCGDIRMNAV
The compounds listed here are annotated with their IC50.
Your answer is read as nM, so omit the unit and give the number.

CN(CCCN1c2ccccc2CCc2ccccc21)CC(=O)c1ccc(Cl)cc1 [compound 5, lofepramine, reference compound]
1550

Next item in the queue.
Prompt: Record lookup: for rSERT (Rattus norvegicus, UniProt P31652), what IC50 belongs to C#CCCN(C)CCCN1c2ccccc2CCc2ccc(N=[N+]=[N-])cc21 ?
Completion: 30.2

Sourced from paper PMC4749225
